Test system: fibroblast cells
Assay: MTT cell viability assay, fibroblasts
Type: cell-based, human
Settings: 48 h incubation, 5-50 μM, read-out: IC50 (cell viability, MTT)
Protocol: MCF-7, MDA-MB-231 (both human breast cancer cell lines), and fibroblast cells were obtained from American Type Culture Collection (ATCC, Manassas, VA, USA). DMEM and FBS used in a cell culture were from Gibco (USA). […] The viability of cultured cells was decided through assaying the reduction of MTT to formazan. […] At 570 nm (630 nm as a reference), the absorbance was measured in an Evolution 201 reader (Thermo Scientific, Waltham, MA).
measurement_name: IC50 (µM)
Expressed in µM, but write only the number.

Exercise: For fibroblast cells, provide IC50 of "Cc1ccn[nH]1.Cc1ccn[nH]1.Cc1ccn[nH]1.Cc1ccn[nH]1.Cl.Cl.Cl.Cl.N=C(N)c1ccc(N=N[N]([Pt])c2ccc(C(=N)N)cc2)cc1.N=C(N)c1ccc(N=N[N]([Pt])c2ccc(C(=N)N)cc2)cc1.O.O" please.
Key: 31
